MIC: recorded values
tested on: Escherichia coli
I only need the number, in µM, no unit after it.

| structure.smiles.string | assay.system | observed.property | unit.name | reported.value |
| --- | --- | --- | --- | --- |
| CC(C)C[C@H](NC(=O)[C@H](CCCCN)NC(=O)[C@H](Cc1ccccc1)NC(=O)[C@@H](NC(=O)[C@H](CO)NC(=O)CNC(=O)[C@H](CC(C)C)NC(=O)[C@@H](N)Cc1ccccc1)C(C)C)C(=O)N[C@@H](C)C(=O)N[C@@H](CO)C(=O)N[C@@H](CCCCN)C(=O)N[C@H](C(=O)N[C@@H](Cc1ccccc1)C(=O)N1CCC[C@H]1C(=O)N[C@@H](C)C(=O)N[C@H](C(=O)N[C@@H](Cc1ccccc1)C(=O)NCC(=O)N[C@@H](CCCCN)C(=O)N[C@H](C(=O)O)C(C)C)C(C)C)C(C)C | Escherichia coli | MIC | µM | 29.9 |

Okay, next one:
In: Which value of MIC has been reported for "CC(C)C[C@H](NC(=O)[C@H](CCCCN)NC(=O)[C@H](Cc1ccccc1)NC(=O)[C@@H](NC(=O)[C@H](C)NC(=O)[C@@H]1CCCN1C(=O)[C@@H](N)CC(C)C)C(C)C)C(=O)N[C@@H](C)C(=O)N[C@@H](CO)C(=O)N[C@@H](CCCCN)C(=O)N[C@H](C(=O)N[C@@H](Cc1ccccc1)C(=O)N1CCC[C@H]1C(=O)N[C@@H](C)C(=O)N[C@H](C(=O)N[C@@H](Cc1ccc(O)cc1)C(=O)N[C@@H](CS)C(=O)N[C@@H](CCCCN)C(=O)N[C@@H](C)C(=O)N[C@@H](CO)C(=O)O)C(C)C)C(C)C" in the records?
Out: 59.8
